assay: MTT assay, Hek293T non-leukemic control cells; format: cell-based; settings: human, Hek293T cells (non-leukemic control cell line), 150 μM, read-out: Viability rate
# viability at 24 h, 150 µM values compiled below
ASSAY_ENDPOINT: viability at 24 h, 150 µM (%)

COMPOUND	OBSERVED
Cc1ccc(NC(=O)c2ccc(CN3CCN(c4ncccn4)CC3)cc2)cc1Nc1cnccn1 [Compound 7]	60.8
COc1ccc(CN2CCN(Cc3ccc(C(=O)Nc4ccc(C)c(Nc5cc(C)ccn5)c4)cc3)CC2)c(OC)c1OC [Compound 10]	80
COc1ccc(CN2CCN(Cc3ccc(C(=O)Nc4ccc(C)c(Nc5nccc(C)n5)c4)cc3)CC2)c(OC)c1OC [Compound 6]	47.7
Cc1ccnc(Nc2cc(NC(=O)c3ccc(CN4CCN(c5ncccn5)CC4)cc3)ccc2C)n1 [Compound 5]	50.4
Cc1ccnc(Nc2cc(NC(=O)c3ccc(CN4CCOCC4)cc3)ccc2C)n1 [Compound 8]	59.4
Cc1ccnc(Nc2cc(NC(=O)c3ccc(CN4CCOCC4)cc3)ccc2C)c1 [Compound 9]	46.9
Cc1ccc(NC(=O)c2ccc(CN3CCN(C)CC3)cc2)cc1Nc1nccc(-c2cccnc2)n1 [imatinib, reference compound]	42.5
